Reference source for all entries: ChEMBL document CHEMBL6092203

test method notes: Apparent volume of distribution in mouse at 2 mg/kg, iv measured upto 24 hrs by LC-MS analysis
Type: ADME, organism-based
measurement conditions: in vivo
quantity name: Vz (L/kg)

Examples from the recorded data:
O=C1CCN(c2cc(C(=O)N3CCC(CC4CCN(c5ccc(-c6cnc7[nH]cc(-c8cnn(CC(F)(F)F)c8)c7n6)cn5)CC4)CC3)ccc2Cl)C(=O)N1 :: 0.121
O=C1CCN(c2cc(C(=O)N3CCC(CC4CCN(c5ccc(-c6cnc7[nH]cc(-c8cnn(CCF)c8)c7n6)cn5)CC4)CC3)ccc2Cl)C(=O)N1 :: 0.917

P = CCN1CCC(n2cc(-c3c[nH]c4ncc(-c5ccc(N6CCC(CC7CCN(C(=O)c8ccc(Cl)c(N9CCC(=O)NC9=O)c8)CC7)CC6)nc5)nc34)cn2)CC1
Q = Cn1cc(-c2c[nH]c3ncc(-c4ccc(N5CCC(CC6CCN(C(=O)c7ccc(Cl)c(N8CCC(=O)NC8=O)c7)CC6)CC5)nc4)nc23)cn1
INPUT: Of P and Q , whose reported Vz is the larger number? State your choice using its label.
OUTPUT: P
(P: 1.03 L/kg, Q: 0.701 L/kg)
